# Tested on: Escherichia coli TOP10
# assayName: shrunken log2 fold change of peptide-encoding DNA abundance (4.5 h post-induction vs induction); higher = less antimicrobial activity (less host growth inhibition)
# appliedConditions: time post-induction: 4.5 h; library: site-saturation at positions 5, 18, 19, 20
Binning rule for recorded shrunken log2 fold change: group 1 = under -0.06, group 2 = from -0.06 up to 0.1, group 3 = 0.1 and over

> print(dat)
           sequencecontent  answerlabel
1  RRIRWRPPRLPRPRPRPWVLPRP      group 3
2  RRIRARPPRLPRPRPRPVSNPRP      group 3
3  RRIRFRPPRLPRPRPRPWCAPRP      group 3
4  RRIRGRPPRLPRPRPRPNQGPRP      group 2
5  RRIRCRPPRLPRPRPRPLPCPRP      group 2
6  RRIRTRPPRLPRPRPRPMRMPRP      group 3
7  RRIRPRPPRLPRPRPRPMRKPRP      group 3
8  RRIRARPPRLPRPRPRPLLTPRP      group 3

Challenge: Band of `RRIRGRPPRLPRPRPRPCKYPRP` ?
Response given: group 1

Challenge: Sort `RRIRMRPPRLPRPRPRPEDTPRP` into one of the categories.
Response given: group 3

Challenge: Any idea which band `RRIRPRPPRLPRPRPRPHDDPRP` is in?
Response given: group 1

Challenge: Sort `RRIRMRPPRLPRPRPRPYLCPRP` into one of the categories.
Response given: group 1

Challenge: For `RRIRFRPPRLPRPRPRPPVMPRP` , which shrunken log2 fold change bin applies?
Response given: group 2

---

# Test system: Escherichia coli TOP10
# assayName: shrunken log2 fold change of peptide-encoding DNA abundance (4.5 h post-induction vs induction); higher = less antimicrobial activity (less host growth inhibition)
# appliedConditions: time post-induction: 4.5 h; library: site-saturation at positions 5, 18, 19, 20
Listing: shrunken log2 fold change of selected sequences

Use these answered entries as a reference point.
> print(dat)
           sequencecontent  experimentalresult
1  RRIRYRPPRLPRPRPRPAQKPRP             -0.0925
2  RRIRSRPPRLPRPRPRPSDAPRP              0.0409
3  RRIRLRPPRLPRPRPRPFCQPRP              -0.078
4  RRIRFRPPRLPRPRPRPREIPRP              0.0702
5  RRIRRRPPRLPRPRPRPEAFPRP               0.842
6  RRIRNRPPRLPRPRPRPDRSPRP              -0.043

Challenge: I have this sequence here, `RRIRARPPRLPRPRPRPSELPRP` , and I need its recorded shrunken log2 fold change.
Response given: 0.22

Challenge: So what does the record say about shrunken log2 fold change for `RRIRLRPPRLPRPRPRPVMYPRP` ?
Response given: -0.302

Challenge: Endpoint output: shrunken log2 fold change of `RRIRKRPPRLPRPRPRPAAKPRP` . Value?
Response given: 0.0103

---

# Test system: Escherichia coli TOP10;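 note: peptides expressed intracellularly from a pBAD plasmid library in pooled LB shake-flask culture, induced with 0.3% L-arabinose, DNA abundance read by NGS, three biological replicates, DESeq2 with apeglm shrinkage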
# assayName: shrunken log2 fold change of peptide-encoding DNA abundance (4.5 h post-induction vs induction); higher = less antimicrobial activity (less host growth inhibition)
# appliedConditions: time post-induction: 4.5 h; library: site-saturation at positions 5, 18, 19, 20
measuredProperty: shrunken log2 fold change

Worked examples, 10 sequences total:
> print(dat)
            sequencecontent  experimentalresult
 1  RRIRFRPPRLPRPRPRPQLEPRP               0.118
 2  RRIRMRPPRLPRPRPRPYLKPRP            -0.00107
 3  RRIRFRPPRLPRPRPRPGKEPRP              -0.166
 4  RRIRCRPPRLPRPRPRPFHTPRP             -0.0266
 5  RRIRMRPPRLPRPRPRPILHPRP              -0.378
 6  RRIRDRPPRLPRPRPRPGDPPRP               0.293
 7  RRIRGRPPRLPRPRPRPREEPRP                1.57
 8  RRIRPRPPRLPRPRPRPAPRPRP               0.992
 9  RRIRIRPPRLPRPRPRPKLFPRP              -0.179
10  RRIRQRPPRLPRPRPRPCGNPRP              0.0751

Challenge: Value lookup for shrunken log2 fold change; key = `RRIRGRPPRLPRPRPRPHFPPRP`
Response given: 0.0246

Challenge: Recorded shrunken log2 fold change of `RRIRCRPPRLPRPRPRPYVNPRP` , please.
Response given: -1.3

Challenge: I'd like to know its shrunken log2 fold change. The sequence in question is `RRIRKRPPRLPRPRPRPFHRPRP`
Response given: -0.0303

Challenge: Look at this sequence and give its reported shrunken log2 fold change. `RRIRSRPPRLPRPRPRPICPPRP`
Response given: -0.055

Challenge: Any idea what its shrunken log2 fold change is? The sequence is `RRIRMRPPRLPRPRPRPWKNPRP`
Response given: 0.0328

Challenge: Can you share its shrunken log2 fold change? I mean this sequence: `RRIRHRPPRLPRPRPRPHAHPRP`
Response given: -0.072

Challenge: Entry `RRIRCRPPRLPRPRPRPRRGPRP` : reported shrunken log2 fold change = ?
Response given: 0.392

Challenge: Which value of shrunken log2 fold change has been reported for `RRIRWRPPRLPRPRPRPDANPRP` in the records?
Response given: 0.0696
